Entry source: the NTF2 design screens of Basanta et al. (2020)

assay: protease stability score; higher = more stable; yeast display proteolysis, trypsin and chymotrypsin;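 further: relative to predicted unfolded state with 0 unfolded-like and 1 meaning tenfold more protease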
Note to self: values exactly at 1 are true. So protease stability score at or above 1 is true, below is false.

SEEEESAKIAIKVMLHSLHTGDEHTMSRLMDPNAREIINGRHNHGREVILEFLRRLGFTKVEIKDFRLTHMSVQGEFVFVHGTTNGEFNGVDTNVDLEIVVLKVDGRWTIQSVFYR ... true
SEEEQDIKHFLELIERTHHTGDEKLFRDLFDPNVRLHVGDKNMHGREKALERWRLLGYEIKHLRWRDFRIFDGRVTAHGEMEGQVNGQKIKRDVEIVLVKIDGQWFIEEERVR ... true
SEEEERSERSLKHLLKTELTGNEEEFWRLADPNAKIEVIIDGVRISDHGREAIIRLWRFMGFDHLIFRHIHVHIQGDKMDVHIQGESRIGDKEMRTTIFLHVIKINGRWINHTLIIEQK ... true
SEDERDAQHFIELWDEAMRTGDFELLHYLMDPHTRILVNGRNLHGWEIYHKLLHEIRVKDSRSEDSRVIGDKVRVDQRVHGIVNGVETDLKTHLITEKFNGRWHYRSVEIK ... false
SEHDEDLENAWRVIKHSTETGDEETSRELIDPNARIDINGKDLHGREEISRIFSEWRVHHIEIKHVEHVGNKVHIDGHEDINVDGRRMETRIELIITKINGKWLVHSIRYI ... false
DEHEKIIKHFLELFMWALRTGDEEINRHLVDPNVRVDVNGVILIGREEVVHYLRHLQEKLGMEIEEVRVEDMSVFDGRLHVDMRIHGRIGDKHTTIETHYLILKFDGRWILEHRRIR ... true
DQLDKSMKESMTRALEHWETGNERSLENLLDPNTKVVVNGVIVHGWERMSELIHDFWRRLGIDHVEIEDIHNHIQGDKAVLNNKTVINVNGQEIKTTLIIYITKVNGRWTIHSIEIHIH ... true
DEEEEFYEKMFRLWFELLLTGDESTLIKLLDPHVRIDFNGRELIGWFYLSHFMREFRHRFDHVEIIIRRVTVIDGVARSDLELRVNINGKDHTVKTEVHIRVVNGRMKSLEFHIK ... false
DEDVEDSLRALRELTKSLITGDEDSFRHLADPHARFIWNGKEIHGWEEVVKVVSKILKHLRFDDIILRDIRIQGDKIEFVVTDLVTVGDKHEEVDSRVTIYKVNGRWLLHTIKIR ... true
DEEHREMRDVLDELLEAFHTGDEHSLNRYADPHARHHVNGKEYHGRELMVKIWMDLGIDHVHLEEIHLQGEKLHMDTRVTVNGRTIKVTIIILKINGRWKLTHVEIK ... false
DHREHRSHRIAEWILRNLVTGNEDEISKLLDPDARVIINGQEVIGREEINRMLRHVFNEIRIHDIEIRDLEIQGEFAFVDTRLDGEFDGRRIKQKSELRIVVINGRVRELEIRIH ... true
